# SYSTEM_UNDER_TEST: Serine/threonine-protein kinase PAK 4 (Homo sapiens)
# Sequence (O96013 whole entry): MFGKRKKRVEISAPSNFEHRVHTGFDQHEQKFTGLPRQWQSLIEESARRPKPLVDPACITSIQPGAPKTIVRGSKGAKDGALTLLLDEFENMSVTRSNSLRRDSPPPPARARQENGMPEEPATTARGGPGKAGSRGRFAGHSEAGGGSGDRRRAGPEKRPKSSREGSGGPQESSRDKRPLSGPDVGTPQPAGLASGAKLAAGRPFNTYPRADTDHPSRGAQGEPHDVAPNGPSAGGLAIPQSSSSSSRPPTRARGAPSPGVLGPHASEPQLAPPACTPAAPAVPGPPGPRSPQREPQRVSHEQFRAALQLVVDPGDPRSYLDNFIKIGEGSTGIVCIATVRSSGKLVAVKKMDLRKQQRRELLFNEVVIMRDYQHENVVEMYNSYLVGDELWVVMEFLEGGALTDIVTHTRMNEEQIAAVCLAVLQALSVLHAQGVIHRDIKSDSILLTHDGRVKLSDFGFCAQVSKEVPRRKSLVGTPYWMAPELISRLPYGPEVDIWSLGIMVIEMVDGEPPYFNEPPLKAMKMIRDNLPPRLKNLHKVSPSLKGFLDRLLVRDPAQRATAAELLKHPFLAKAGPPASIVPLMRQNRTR
# ASSAY_NOTES: Inhibition of PAK4 (unknown origin)
EXPERIMENTAL_ENDPOINT: pIC50
Reminder that pIC50 is minus the log10 of a molar concentration.

COc1nc(NCCc2c[nH]c3ccccc23)nc(Nc2ccc3[nH]ncc3c2)n1    6.10

From here, focus on the item given below.
Any idea what pIC50 was measured for "CCn1c(=O)c(-c2ccc(-c3noc(C)n3)cc2Cl)cc2cnc(Nc3ccc(C4CCN(C)CC4)cc3)nc21" ?
6.02

---

# ASSAY_NOTES: Kinetic solubility of compound
# Type: physicochemical
# STATED_CONDITIONS: read-out: Kinetic_solubility
EXPERIMENTAL_ENDPOINT: solubility kinetic

solubility kinetic for CC(C)NC(=O)N1CCC(NC2=Nc3cc(F)ccc3N(CC(F)F)c3ccc(Cl)cc32)C1 (stereo unspecified) ?
55 µM
